FYI, the data here is from the NIST ThermoML archive (doi:10.1016/j.fluid.2016.06.011).

So I've got a bunch of molecules here, and I need their mass density values.
Settings: 321.15 K; 101.33 kPa; Liquid; Vibrating tube method
Give the value, in units of kg/m3, as a plain number.

Prompt: Supply reported mass density belonging to this molecule: OCC(F)(F)C(F)(F)C(F)(F)C(F)(F)F [2,2,3,3,4,4,5,5,5-nonafluoropentan-1-ol]
Response: 1604.62

Prompt: Answer with the recorded mass density for the molecule listed here: OCC(F)(F)C(F)(F)C(F)(F)F [2,2,3,3,4,4,4-heptafluorobutanol]
Response: 1548.2

Prompt: Identify measured mass density associated with OCC(F)(F)C(F)(F)C(F)(F)C(F)(F)C(F)(F)F [2,2,3,3,4,4,5,5,6,6,6-undecafluorohexan-1-ol]
Response: 1662.11

Prompt: Look up and report measured mass density for this entry: OCC(F)(F)C(F)(F)F [2,2,3,3,3-pentafluoropropanol]
Response: 1459.64
